Origin of values: paper PMC4249970

target: TRPA1 (Homo sapiens, UniProt O75762); assay: whole-cell voltage clamp of AITC-evoked currents in hTRPA1-expressing IMR-90 cells; type: cell-based; parameters: expressed in transfected cells; host or cells: IMR-90; settings: 2.0 mM extracellular Ca2+; holding potential -60 mV; 100 µM AITC; estimated; read-out: IC50 of blockade of TRPA1-mediated currents
Sequence (O75762 whole entry): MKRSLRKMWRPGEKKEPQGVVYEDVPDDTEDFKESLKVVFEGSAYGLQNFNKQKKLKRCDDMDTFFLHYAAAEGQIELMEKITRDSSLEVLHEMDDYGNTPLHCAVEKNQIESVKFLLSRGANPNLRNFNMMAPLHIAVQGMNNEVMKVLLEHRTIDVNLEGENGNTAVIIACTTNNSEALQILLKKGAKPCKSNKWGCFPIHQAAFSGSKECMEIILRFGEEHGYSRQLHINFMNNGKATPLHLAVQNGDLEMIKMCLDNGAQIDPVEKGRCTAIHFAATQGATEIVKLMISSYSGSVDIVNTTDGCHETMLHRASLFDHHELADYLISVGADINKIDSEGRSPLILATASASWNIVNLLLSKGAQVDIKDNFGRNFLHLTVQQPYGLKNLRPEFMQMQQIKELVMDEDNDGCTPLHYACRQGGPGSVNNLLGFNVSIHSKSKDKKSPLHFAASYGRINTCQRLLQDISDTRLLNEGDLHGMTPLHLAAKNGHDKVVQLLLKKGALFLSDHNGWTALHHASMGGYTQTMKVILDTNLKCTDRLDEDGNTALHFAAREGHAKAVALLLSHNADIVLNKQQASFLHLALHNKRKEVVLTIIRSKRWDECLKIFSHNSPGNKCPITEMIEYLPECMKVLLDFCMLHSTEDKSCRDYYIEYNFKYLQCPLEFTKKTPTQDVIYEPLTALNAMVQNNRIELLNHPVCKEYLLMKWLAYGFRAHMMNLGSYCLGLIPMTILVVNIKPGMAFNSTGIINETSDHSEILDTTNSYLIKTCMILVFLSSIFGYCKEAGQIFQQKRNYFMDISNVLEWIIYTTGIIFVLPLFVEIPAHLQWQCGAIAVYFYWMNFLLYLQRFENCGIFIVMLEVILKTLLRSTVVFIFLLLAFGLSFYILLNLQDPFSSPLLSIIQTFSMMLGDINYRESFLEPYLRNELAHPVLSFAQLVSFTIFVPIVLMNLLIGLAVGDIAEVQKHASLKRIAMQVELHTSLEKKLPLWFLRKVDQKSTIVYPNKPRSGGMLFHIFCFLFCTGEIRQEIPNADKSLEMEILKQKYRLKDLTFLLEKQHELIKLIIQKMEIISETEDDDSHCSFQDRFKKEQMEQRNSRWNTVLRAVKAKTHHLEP
reported_property: IC50 (µM)

>>> value_measured("CC(=O)NC1C2CC3CC1CC(O)(C3)C2 (stereo not shown) [compound 6a/b, N-5-hydroxyadamantan-2-yl acetamide]")
10.6
